All values here come from patent US20260242458A1.

tested system: T1, recombinant human IL-25 protein (human, UniProt Q9H293 33-177)
T1 sequence: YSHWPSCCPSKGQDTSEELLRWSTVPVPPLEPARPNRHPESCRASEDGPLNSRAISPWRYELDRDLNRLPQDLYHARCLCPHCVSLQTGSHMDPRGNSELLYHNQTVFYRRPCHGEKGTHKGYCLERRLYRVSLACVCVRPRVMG
test method notes: cell-based or functional assay
measured endpoint: IC50, IL-25 induced CXCL1 production in HT-29 cells (pM)

{"columns": ["binder", "measurement unit", "val"],
 "data": [
  ["IL25Ab4 (antibody, V domains shown) VH: QVTLKESGPGILQPSQTLSLTCSFSGFSLSTSGMGVSWIRQPSGKGLEWLAHIYWDDAKFYNPSLKSRVTISKDTSRNQVFLRITSVDTADIATYYCARRGYDNYGGFVDWGQGTLVTVSS VL: ENVLIQSPAIMSASLGEKVTMSCRASSSVNYMYWYQQKSDAPPKLWIYYTSNLAPGVPGRFSGSGSGNSYSLTISSMEGEDAATYYCQQFTSYPYMYTFGGGTKLEIK", "pM", 76]
]}
